tgt: JAK1 (Homo sapiens (Human), UniProt P23458)
Sequence (P23458 whole entry): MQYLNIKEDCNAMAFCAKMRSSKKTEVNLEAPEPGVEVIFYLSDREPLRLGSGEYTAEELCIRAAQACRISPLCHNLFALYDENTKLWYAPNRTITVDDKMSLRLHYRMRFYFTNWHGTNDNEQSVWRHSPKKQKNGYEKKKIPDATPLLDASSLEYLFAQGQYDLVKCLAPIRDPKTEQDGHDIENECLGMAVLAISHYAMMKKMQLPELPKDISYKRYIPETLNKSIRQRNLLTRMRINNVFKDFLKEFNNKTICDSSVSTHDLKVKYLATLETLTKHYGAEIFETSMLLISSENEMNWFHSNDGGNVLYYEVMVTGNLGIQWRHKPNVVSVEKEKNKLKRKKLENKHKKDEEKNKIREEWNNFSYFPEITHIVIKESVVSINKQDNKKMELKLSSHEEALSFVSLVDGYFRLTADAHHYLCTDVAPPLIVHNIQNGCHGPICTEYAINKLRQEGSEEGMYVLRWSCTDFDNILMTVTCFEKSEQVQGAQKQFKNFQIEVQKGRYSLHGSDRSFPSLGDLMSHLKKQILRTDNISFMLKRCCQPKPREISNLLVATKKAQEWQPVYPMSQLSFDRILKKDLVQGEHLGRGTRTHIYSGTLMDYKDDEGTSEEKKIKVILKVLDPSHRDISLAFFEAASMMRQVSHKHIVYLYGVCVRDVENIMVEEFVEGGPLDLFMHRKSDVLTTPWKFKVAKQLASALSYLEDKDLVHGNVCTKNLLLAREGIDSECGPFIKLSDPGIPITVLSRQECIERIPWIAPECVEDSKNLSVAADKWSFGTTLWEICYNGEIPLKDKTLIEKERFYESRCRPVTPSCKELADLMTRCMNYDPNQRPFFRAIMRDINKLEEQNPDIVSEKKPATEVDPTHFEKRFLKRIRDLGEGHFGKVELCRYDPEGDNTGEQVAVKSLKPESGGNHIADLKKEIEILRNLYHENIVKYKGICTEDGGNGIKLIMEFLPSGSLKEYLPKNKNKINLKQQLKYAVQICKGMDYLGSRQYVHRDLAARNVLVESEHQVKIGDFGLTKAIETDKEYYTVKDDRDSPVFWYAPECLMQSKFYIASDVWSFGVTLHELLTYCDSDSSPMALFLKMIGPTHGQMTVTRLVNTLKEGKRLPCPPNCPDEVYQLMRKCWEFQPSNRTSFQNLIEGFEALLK
experimentNotes: Analysis of JAK1 activity inhibition ability (ADP-Glo Kinase Assay)
Type: biochemical
conditionSet: JAK1 enzyme, ADP-Glo luminescence, ATP 250 uM, IRS-itide substrate, 30° C. 40 minutes; read-out: IC50
pIC50: −log10 of the molar value.
Items are presented alongside their recorded pIC50.

A selection of reference data follows.
compound: Cc1nn(CCC#N)c(C)c1-c1cc(NC(=O)C2CC2)nc2[nH]ccc12 [Example 480]
tgt: JAK1 (Homo sapiens (Human), UniProt P23458)
pIC50: 6.70 to 7.70
--
compound: CCS(=O)(=O)Nc1ccc(-c2cc(NC(=O)C3CC3)nc3[nH]ccc23)cn1 [Example 148]
tgt: JAK1 (Homo sapiens (Human), UniProt P23458)
pIC50: 6.70 to 7.70
--
compound: CCS(=O)(=O)Nc1ccc(-c2cc(NC(=O)C3CC3)[n+]([O-])c3[nH]ccc23)c(C)c1 [Example 134]
tgt: JAK1 (Homo sapiens (Human), UniProt P23458)
pIC50: 6.70 to 7.70
--
compound: CNS(=O)(=O)Cc1ccc(-c2cc(NC(=O)C3CC3)nc3[nH]ccc23)cc1 [Example 533]
tgt: JAK1 (Homo sapiens (Human), UniProt P23458)
pIC50: 6.70 to 7.70
--
compound: N#CC1(CC(=O)N2C3CCC2CN(c2nc(NC(=O)C4CC4)nc4[nH]ccc24)C3)CC1 [Example 689]
tgt: JAK1 (Homo sapiens (Human), UniProt P23458)
pIC50: 6.70 to 7.70

We next turn to a different compound, shown below.
GET /values?readout=pIC50&item= CCS(=O)(=O)N1CC(CC#N)(N2CC=C(c3cc(NC(=O)C4CC4)nc4[nH]ccc34)CC2)C1 [Example 616]
> 7.70
